- Test System: SARS-COV2-S1 RBD (mouse IgG2Fc tag) (SARS-CoV-2, UniProt P0DTC2 319-537)
- Measurement Protocol: FACS, blocks S1 RBD-mFc binding to ACE2 on Vero E6
Test Readout: pIC50
Quick note: pIC50 values are minus log10 of concentrations in mol/L.

// solved cases for pIC50 follow
Binder	pIC50
variant 5-37 (Fc fusion) VHH: EVQLVESGGGLVQPGGSLRLSCAASGSTFSINAMGWFRQAPGKEREFVGGISRSGATTNYADSVKGRFTISADNSKNTAYLQMNSLKPEDTAVYYCAADGVPEYSDYASGPVWGQGTLVTVSS	9.00
variant 5-20 (Fc fusion) VHH: EVQLVESGGGLVQPGGSLRLSCAASGRTIVPYTMGWFRQAPGKERELVAAISPSAFTEYADSVKGRFTISADNSKNTAYLQMNSLKPEDTAVYYCAARRWGYDWGQGTLVTVSS	8.91

Provide only the value of recorded pIC50 for variant 2-2 (antibody, V domains shown) VH: EVQLLESGGGLVQPGGSLRLSCAASGFTFSRHAMNWVRQAPGKGLEWVSGISGSGDETYYADSVKGRFTISRDNSKNTLYLQMNSLRAEDTAVYYCARDLPASYYDSSGYYWHNGMDVWGQGTLVTVSS VL: DIQMTQSPSSLSASVGDRVTITCRASQTINTYLNWYQQKPGKAPKLLIYSASTLQSGVPSRFSGSGSGTDFTLTISSLQPEDFATYYCQQSYSTFTFGQGTKVEIK
9.25
